# Tested on: RPMI-8226
# ASSAY PROTOCOL: NCI tumour cell line growth inhibition, 48 h
Calls of active or inactive are those of the source. Cut-off read from the data, not from the text of the source: active = GI50 up to about 1.1 µM and inactive = higher.
API: response.call in true (1) = active, false (0) = inactive

Examples with answers:
MOLECULE: CN1N(c2ccccc2)C(=O)C2=NC=C(C(=O)c3ccccc3)C(=N)C21C (stereo not given)
CAT: false (0)

MOLECULE: COC(=O)[C@@H]1OC(C)(c2ccccc2)O[C@H]1C(=O)OC
CAT: false (0)

MOLECULE: COc1cc(/C=C\c2ccc(C)cc2)cc(OC)c1OC
CAT: true (1)

MOLECULE: COc1cc([C@H]2c3cc4c(cc3[C@H](NCc3ccc(F)cc3)C3COC(=O)[C@H]32)OCO4)cc(OC)c1O (stereo not given in full)
CAT: false (0)

Prompt: What outcome does the record of this test show for `COCN1C(=O)[C@@H]2CCCN2C(=O)c2cc(Cl)ccc21` ?
Completion: false (0)

---

Items are presented alongside their recorded GI50.
# System: OVCAR-5
# ASSAY PROTOCOL: NCI tumour cell line growth inhibition, 48 h
Activity calls are given as the source filed them. Rule as the data show it: active = GI50 up to about 1.1 µM and inactive = higher.

CHEM SMILES: Cc1cc(N(CCC#N)CCC#N)ccc1/N=N/c1ccc(Br)cc1
SYSTEM: OVCAR-5
GI50: > 100 µM (inactive)

CHEM SMILES: CN1CCC/C1=C1/C(=O)N(c2ccccc2)N=C1c1ccc[nH]1
SYSTEM: OVCAR-5
GI50: > 100 µM (inactive)

Now let's try a different one.
Prompt: Please give measured GI50 of the following entry: `CC[N+](CC)(CCNCC(N)=O)CC(N)=O`
Completion: > 10 µM (inactive)

---

# Test system: SF-295
# ASSAY PROTOCOL: NCI tumour cell line growth inhibition, 48 h
Active and inactive are the calls of the source. Rule as the data show it: active = GI50 up to about 1.1 µM and inactive = higher.
Items are presented alongside their recorded GI50.

The cases that follow already have their GI50 on record.
COMPOUND: O=C1/C(=C/C=C/c2ccccc2)N=C(c2ccccc2)N1C1Nc2cc3c(cc2S1)NC(N1C(=O)/C(=C/C=C/c2ccccc2)N=C1c1ccccc1)S3 (stereo not given)
RESULT: 67.6 µM (inactive)

COMPOUND: CCOC(=O)c1nc2ccc(C(F)(F)F)cc2nc1Oc1ccc(C#N)cc1
RESULT: 14.8 µM (inactive)

COMPOUND: CNc1c2c(c3nc4ccccc4c4c3c1N=C4)NCCC2=O
RESULT: 4.5 µM (inactive)

COMPOUND: Cc1ccc(S(=O)(=O)c2ccsc2NC(=O)C(F)(F)F)cc1
RESULT: 37.8 µM (inactive)

Prompt: Please give measured GI50 of the following entry: CCN(CC)[C@@H]1c2cc3c(cc2C(c2cc(OC)c(O)c(OC)c2)C2C(=O)CO[C@@H]21)OCO3 (stereo not given in full)
Completion: > 100 µM (inactive)

---

# Tested on: CCRF-CEM
# ASSAY PROTOCOL: NCI tumour cell line growth inhibition, 48 h
Active and inactive are the calls of the source. No stated cut-off is given here; in the data, active = GI50 up to about 1.1 µM and inactive = higher.
API: response.call in 1.0 for active, 0.0 for inactive

Examples with answers:
COMPOUND: Cc1csc2c1-n1cccc1C2=O
SYSTEM: CCRF-CEM
CAT: 0.0
//
COMPOUND: CN1CCC/C1=C1/C(=O)N(c2ccccc2)N=C1c1ccc[nH]1
SYSTEM: CCRF-CEM
CAT: 0.0
//
COMPOUND: CSc1sc(=S)sc1SC
SYSTEM: CCRF-CEM
CAT: 0.0
//
COMPOUND: CC(=O)c1cccc(NC(=O)C(=O)Nn2c(N)nnc2N)c1
SYSTEM: CCRF-CEM
CAT: 0.0
//
COMPOUND: CC1c2[nH]c3ccccc3c2CCN1O (configuration not stated)
SYSTEM: CCRF-CEM
CAT: 0.0
//
COMPOUND: O=Cc1ccccc1COC(=O)c1cc(C(=O)OCc2ccccc2C=O)c(C(=O)OCc2ccccc2C=O)cc1C(=O)OCc1ccccc1C=O
SYSTEM: CCRF-CEM
CAT: 0.0

Prompt: What outcome does the record of this test show for `O=C(O)CN(c1ccccc1)S(=O)(=O)c1cccc([N+](=O)[O-])c1` ?
Completion: 0.0
